# System: Bovine cardiac myofibrils
# protocol.summary: In vitro model of dose-dependent myofibril ATPase modulation (AC1.4, pyruvate kinase/lactate dehydrogenase-coupled ATPase assay at pCa25)
# Format: biochemical
# condition.description: concentration at which ATPase activity was 1.4-fold higher than the bottom of the dose curve, mean of a minimum of two independent tests
measure.name: AC1.4 (µM)

Recorded AC1.4, per entry:
>>> reported_result("CC(C)(C)c1cc(C(=O)N2[C@@H](C(=O)N[C@@H](c3ccc(Cl)cc3F)C3COC3)C[C@H]3C[C@H]32)ccn1")
7.0545
>>> reported_result("Cc1cc(Cl)cc(CNC(=O)[C@H]2CCCN2C(=O)[C@H]2CCCN(S(=O)(=O)N3CC(C#N)C3)C2)c1")
1.7885
>>> reported_result("O=C(N[C@@H](c1ccc(C(F)(F)F)cc1F)C1CC1)[C@H]1CCCN1C(=O)c1cccc(C2CCC2)c1")
2.614
>>> reported_result("O=C(N[C@@H](c1cc(F)c(Cl)cc1F)C1CC1)[C@H]1C[C@H]2C[C@H]2N1C(=O)c1cc(S(=O)(=O)C2CC2)ccn1")
0.2306

1: N#CC1CN(S(=O)(=O)N2CCC[C@H](C(=O)N3C[C@@H](F)C[C@@H]3C(=O)NCc3ccc(C(F)(F)F)cc3)C2)C1
2: O=C(N[C@@H](c1cc(F)c(Cl)cc1F)C1CC1)[C@H]1C[C@H]2C[C@H]2N1C(=O)c1ccnc(C(F)(F)F)c1
From the recorded data, which exceeds the other in AC1.4: 1 or 2 ? Mark your answer with the label of the selected entry. 2

###

# Tested on: Bovine cardiac myofibrils
# protocol.summary: In vitro model of dose-dependent myofibril ATPase modulation (AC1.4, pyruvate kinase/lactate dehydrogenase-coupled ATPase assay at pCa25)
# Format: biochemical
# condition.description: concentration at which ATPase activity was 1.4-fold higher than the bottom of the dose curve, mean of a minimum of two independent tests
measure.name: AC1.4 (µM)

Field: example entries. Status: answers known.
>>> reported_result("CN(C)S(=O)(=O)c1cccc(C(=O)N2CCC[C@@H]2C(=O)N[C@@H](c2ccc(C(F)(F)F)cc2F)C2CC2)c1 [Example 58]")
0.06485
>>> reported_result("C[C@H](NC(=O)[C@H]1CCCN1C(=O)[C@H]1CCCN(S(=O)(=O)N2CC(C#N)C2)C1)c1ccc(Cl)c(F)c1 [Example 462]")
1.9235
>>> reported_result("Cc1cccc(F)c1CNC(=O)[C@H]1CCCN1C(=O)[C@H]1CCCN(S(=O)(=O)N2CC(C#N)C2)C1 [Example 607]")
3.714
>>> reported_result("O=C(N[C@@H](c1ccc(C(F)(F)F)cc1F)C1CC1)[C@H]1C[C@H]2C[C@H]2N1C(=O)c1cccc(C(O)C(F)(F)F)c1 (stereo partly shown) [Example 547]")
2.836

a: Cc1cc(C(=O)N2[C@@H](C(=O)N[C@@H](c3cc(F)c(Cl)cc3F)C3COC3)C[C@H]3C[C@H]32)ccn1 [Example 621]
b: CN(Cc1ccc(C(F)(F)F)cc1)C(=O)[C@H]1CCCN1C(=O)c1cccc(S(=O)(=O)N2CC(C#N)C2)c1 [Example 75]
Given a and given b , which shows the smaller recorded AC1.4? Write down the label attached to your selection. b
(b: 0.1006 µM, a: 3.9478 µM)

A: Cc1cc(C(=O)N2[C@@H](C(=O)N[C@@H](c3cc(F)c(Cl)cc3F)C3CC3)C[C@H]3C[C@H]32)ccn1 [Example 736]
B: CS(=O)(=O)c1cc(C(=O)N2[C@@H](C(=O)N[C@@H](c3cc(F)c(Cl)cc3F)C3CC3)C[C@H]3C[C@H]32)ccn1 [Example 314]
Just tell me: smaller AC1.4 value, A or B ? Answer by stating the label of the chosen item. B
(B: 0.846 µM, A: 7.041 µM)

a: O=C(N[C@@H](c1ccc(C(F)(F)F)cc1F)C1CC1)[C@H]1CCCN1C(=O)c1cccc(C2(F)CN(S(=O)(=O)C3COC3)C2)c1 [Example 451]
b: N#CC1CN(S(=O)(=O)c2cccc(C(=O)N3Cc4ccccc4C3C(=O)NCc3ccc(C(F)(F)F)cc3)c2)C1 (stereo not shown) [Example 93]
c: COc1ccc(S(C)(=O)=O)cc1C(=O)N1CCC[C@@H]1C(=O)N[C@@H](c1ccc(C(F)(F)F)cc1F)C1CC1 [Example 602]
d: O=C(N[C@@H](c1cc(F)c(C(F)(F)F)cc1F)C1CC1)[C@H]1C[C@H]2C[C@H]2N1C(=O)c1cc(C(F)(F)F)ccn1 [Example 289]
Please give the order of these compounds when sorted by AC1.4, largest value leading. Rank them, then answer with their labels in that order. c, a, d, b
(c: 3.4595 µM, a: 1.8635 µM, d: 0.7506 µM, b: 0.1413 µM)

A: C[C@@H](NC(=O)[C@H]1CCCN1C(=O)[C@H]1CCCN(S(=O)(=O)N2CC(C#N)C2)C1)c1ccc(Cl)cc1 [Example 135]
B: Cc1ccc([C@@H](C)NC(=O)[C@H]2CCCN2C(=O)c2cccc(S(=O)(=O)N3CC(C#N)C3)c2)c(F)c1 [Example 46]
# return whichever of A and B has the smaller AC1.4 Let me know the label of the one you choose. B

###

# Test system: Bovine cardiac myofibrils
# protocol.summary: In vitro model of dose-dependent myofibril ATPase modulation (AC1.4, pyruvate kinase/lactate dehydrogenase-coupled ATPase assay at pCa25)
# Type: biochemical
# condition.description: concentration at which ATPase activity was 1.4-fold higher than the bottom of the dose curve, mean of a minimum of two independent tests
measure.name: AC1.4 (µM)

P: O=C(NCc1ccc(C(F)(F)F)cc1)[C@H]1CCCN1C(=O)[C@H]1CCCN(S(=O)(=O)N2CC(C3CCOC3)C2)C1 (stereo partly shown)
Q: CCNc1ccc(C)cc1C(=O)N1[C@@H](C(=O)N[C@@H](c2ccc(C(F)(F)F)cc2F)C2COC2)C[C@H]2C[C@H]21
R: N#CC1CN(S(=O)(=O)N2CCC[C@H](C(=O)N3CCC[C@@H]3C(=O)N[C@@H](CO)c3ccc(Cl)c(F)c3)C2)C1
S: N#CC1CN(S(=O)(=O)N2CCC[C@H](C(=O)N3CCC[C@@H]3C(=O)NCc3cc(C(F)(F)F)ccc3F)C2)C1
Arrange these 4 compounds in increasing order of AC1.4. // list labels; follow requested order Q, R, S, P
(Q: 0.0287 µM, R: 1.7265 µM, S: 4.9025 µM, P: 7.1325 µM)

###

# System: Bovine cardiac myofibrils
# protocol.summary: In vitro model of dose-dependent myofibril ATPase modulation (AC1.4, pyruvate kinase/lactate dehydrogenase-coupled ATPase assay at pCa25)
# Assay type: biochemical
# condition.description: concentration at which ATPase activity was 1.4-fold higher than the bottom of the dose curve, mean of a minimum of two independent tests
measure.name: AC1.4 (µM)

// known answers, use as guide
>>> reported_result("O=C1NCCCCC1NS(=O)(=O)N1CCC[C@H](C(=O)N2CCC[C@@H]2C(=O)NCc2ccc(C(F)(F)F)cc2)C1 (stereo partly drawn)")
2.035
>>> reported_result("N#CC1CN(S(=O)(=O)N2CCC[C@H](C(=O)N3CCC[C@@H]3C(=O)N[C@H](CO)c3ccc(Cl)cc3)C2)C1")
0.2892

I: CCS(=O)(=O)c1cccc(C(=O)N2[C@@H](C(=O)N[C@@H](c3cc(F)c(C(F)F)cc3F)C3CC3)C[C@H]3C[C@H]32)c1
II: N#CC1CN(S(=O)(=O)N2CCC[C@H](C(=O)N3C[C@H](F)C[C@@H]3C(=O)NCc3ccc(C(F)(F)F)cc3)C2)C1
III: CCOc1ccc(CNC(=O)[C@H]2CCCN2C(=O)[C@H]2CCCN(S(=O)(=O)N3CC(C#N)C3)C2)cc1F
IV: O=C(NCc1ccc(C(F)(F)F)cc1)[C@H]1CCCN1C(=O)[C@H]1CCCN(S(=O)(=O)N2CC(OC(F)(F)F)C2)C1
In this exercise, place the 4 compounds in ascending sequence of their recorded AC1.4. Returns: the labels listed in the requested order. I, II, IV, III
(I: 0.314 µM, II: 0.4746 µM, IV: 2.69 µM, III: 5.8345 µM)

###

# Test system: Bovine cardiac myofibrils
# protocol.summary: In vitro model of dose-dependent myofibril ATPase modulation (AC1.4, pyruvate kinase/lactate dehydrogenase-coupled ATPase assay at pCa25)
# Format: biochemical
# condition.description: concentration at which ATPase activity was 1.4-fold higher than the bottom of the dose curve, mean of a minimum of two independent tests
measure.name: AC1.4 (µM)

Solved cases (5 shown):
>>> reported_result("CS(=O)(=O)c1cccc(C(=O)N2[C@@H](C(=O)NC(c3ccc(C(F)(F)F)cc3F)C3CNC(=O)C3)C[C@H]3C[C@H]32)c1 (stereo partly shown) [Example 244]")
0.5793
>>> reported_result("CN(Cc1ccc(Cl)cc1)C(=O)C1CCCN1C(=O)c1cccc(S(=O)(=O)N2CC(C#N)C2)c1 (stereo not shown)")
0.2767
>>> reported_result("CCS(=O)(=O)c1cccc(C(=O)N2[C@@H](C(=O)N[C@@H](c3ccc(C(F)(F)F)cc3)C3COC3)C[C@H]3C[C@H]32)c1")
0.6922
>>> reported_result("N#CC1CN(S(=O)(=O)N2CCC[C@H](C(=O)N3CCC[C@@H]3C(=O)NC3COc4ccc(C(F)(F)F)cc43)C2)C1 (stereo partly shown)")
4.572
>>> reported_result("CS(=O)(=O)c1cc(C(=O)N2[C@@H](C(=O)N[C@@H](c3cc(F)c(C(F)(F)F)cc3F)C3CC3)C[C@@H]3C[C@@H]32)ccn1")
6.763

1: N#C[C@H]1C[C@H](S(=O)(=O)c2cccc(C(=O)N3CCCC[C@@H]3C(=O)NCc3ccc(C(F)(F)F)nc3)c2)C1
2: C[C@@H](NC(=O)[C@H]1CCCN1C(=O)[C@@H]1CN(S(=O)(=O)N2CC(C#N)C2)CCN1)c1ccc(Cl)cc1
Between 1 and 2 , whose measured AC1.4 reads higher? Lab log: write the label of the selected item as the result. 2

Source of measurements: patent US11780826B2
